Molecular target: Protein cereblon/Phospholipid hydroperoxide glutathione peroxidase GPX4 (Homo sapiens) (UniProt Q96SW2+P36969)
Sequence (P36969 whole entry, looked up): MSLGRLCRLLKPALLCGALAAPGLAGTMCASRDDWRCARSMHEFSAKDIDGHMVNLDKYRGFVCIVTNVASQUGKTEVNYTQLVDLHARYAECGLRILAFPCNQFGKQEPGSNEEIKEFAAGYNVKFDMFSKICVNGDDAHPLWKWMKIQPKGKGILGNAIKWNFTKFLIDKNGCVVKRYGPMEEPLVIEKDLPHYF
Sequence (Q96SW2 whole entry, looked up): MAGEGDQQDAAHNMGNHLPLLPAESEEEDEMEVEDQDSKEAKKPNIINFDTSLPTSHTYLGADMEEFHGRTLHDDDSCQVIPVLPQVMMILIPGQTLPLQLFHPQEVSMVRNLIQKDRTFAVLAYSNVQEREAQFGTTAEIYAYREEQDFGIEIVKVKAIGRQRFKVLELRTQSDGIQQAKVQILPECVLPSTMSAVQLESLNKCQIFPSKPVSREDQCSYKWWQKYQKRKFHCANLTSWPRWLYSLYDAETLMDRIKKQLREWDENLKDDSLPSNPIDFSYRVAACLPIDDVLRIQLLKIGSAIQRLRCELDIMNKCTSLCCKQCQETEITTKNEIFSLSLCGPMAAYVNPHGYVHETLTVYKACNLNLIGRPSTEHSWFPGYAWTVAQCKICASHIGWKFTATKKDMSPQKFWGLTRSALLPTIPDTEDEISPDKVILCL
Test: PROTAC activity at CRBN/GPX4 in human MGC-803 cells assessed as induction of GPX4 degradation at 10 uM incubated for 24 hrs by Western blot analysis
Type: cell-based
quantity: Activity (%)
Report only the number, with the unit % understood.

Reference set, count: 2
[
  {
    "compound": "O=C(CCOCCNc1cccc2c1C(=O)N(C1CCC(=O)NC1=O)C2=O)NCCCCCC(=O)Nc1ccc(N(C(=O)CCl)C(C(=O)NCCc2ccccc2)c2cccs2)cc1 (centres undefined)",
    "endpointResult": 18
  },
  {
    "compound": "O=C1CCC(N2C(=O)c3cccc(NCCOCCOCCOCCOCCC(=O)N4CCN(CC(=O)Nc5ccc(N(C(=O)CCl)C(C(=O)NCCc6ccccc6)c6cccs6)cc5)CC4)c3C2=O)C(=O)N1 (centres undefined)",
    "endpointResult": 19.9
  }
]

Summary for this compound, O=C1CCC(N2C(=O)c3cccc(NCCOCCOCCOCCOCCC(=O)Nc4ccc(N(C(=O)CCl)C(C(=O)NCCc5ccccc5)c5cccs5)cc4)c3C2=O)C(=O)N1 (centres undefined) : Activity is 14.5

* * *

Reported Activity values for a set of compounds
Target: von Hippel-Lindau disease tumor suppressor/Phospholipid hydroperoxide glutathione peroxidase GPX4 (Homo sapiens) (UniProt P40337+P36969)
Sequence (P36969 whole entry, looked up): as the sequence (P36969 whole entry, looked up) above
Sequence (P40337 whole entry, looked up): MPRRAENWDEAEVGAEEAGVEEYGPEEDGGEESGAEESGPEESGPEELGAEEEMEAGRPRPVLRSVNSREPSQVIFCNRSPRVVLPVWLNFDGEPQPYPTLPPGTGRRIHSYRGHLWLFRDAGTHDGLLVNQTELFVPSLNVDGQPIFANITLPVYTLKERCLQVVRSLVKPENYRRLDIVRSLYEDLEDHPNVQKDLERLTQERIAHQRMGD
Assay: PROTAC activity at VHL/GPX4 in human MGC-803 cells assessed as induction of GPX4 degradation at 10 uM incubated for 24 hrs by Western blot analysis
Type: cell-based
Report only the number, with the unit % understood.

[
  {
    "compound": "COc1ccc(N(C(=O)CCl)C(C(=O)NCCc2ccccc2)c2ccc(NC(=O)CCOCCNC(=O)CCOCCNc3cccc4c3C(=O)N(C3CCC(=O)NC3=O)C4=O)cc2)cc1Cl (stereo not given)",
    "quantity": "Activity",
    "endpointResult": 39.2
  },
  {
    "compound": "Cc1ncsc1-c1ccc([C@H](C)NC(=O)[C@@H]2C[C@@H](O)CN2C(=O)[C@@H](NC(=O)CCCCCCC(=O)Nc2ccc(N(C(=O)CCl)C(C(=O)NCCc3ccccc3)c3cccs3)cc2)C(C)(C)C)cc1 (stereo not given in full)",
    "quantity": "Activity",
    "endpointResult": 45
  },
  {
    "compound": "Cc1ncsc1-c1ccc([C@H](C)NC(=O)[C@@H]2C[C@@H](O)CN2C(=O)[C@@H](NC(=O)CCCCCCCC(=O)Nc2ccc(N(C(=O)CCl)C(C(=O)NCCc3ccccc3)c3cccs3)cc2)C(C)(C)C)cc1 (stereo not given in full)",
    "quantity": "Activity",
    "endpointResult": 21
  }
]

API: the following record is the query input.
Summary for this compound, COc1ccc(N(C(=O)CCl)C(C(=O)NCCc2ccccc2)c2ccc(NC(=O)CCOCCNc3cccc4c3C(=O)N(C3CCC(=O)NC3=O)C4=O)cc2)cc1Cl (stereo not given) : Activity is 28.7
